From: patent US20150197497A1

# study target: HDAC3 (Homo sapiens, UniProt O15379)
# Construct: Recombinant, full-length HDAC protein (BPS Biosciences) was incubated with fluorophore conjugated substrate; purchased BPS Biosciences
# Sequence (O15379 whole entry): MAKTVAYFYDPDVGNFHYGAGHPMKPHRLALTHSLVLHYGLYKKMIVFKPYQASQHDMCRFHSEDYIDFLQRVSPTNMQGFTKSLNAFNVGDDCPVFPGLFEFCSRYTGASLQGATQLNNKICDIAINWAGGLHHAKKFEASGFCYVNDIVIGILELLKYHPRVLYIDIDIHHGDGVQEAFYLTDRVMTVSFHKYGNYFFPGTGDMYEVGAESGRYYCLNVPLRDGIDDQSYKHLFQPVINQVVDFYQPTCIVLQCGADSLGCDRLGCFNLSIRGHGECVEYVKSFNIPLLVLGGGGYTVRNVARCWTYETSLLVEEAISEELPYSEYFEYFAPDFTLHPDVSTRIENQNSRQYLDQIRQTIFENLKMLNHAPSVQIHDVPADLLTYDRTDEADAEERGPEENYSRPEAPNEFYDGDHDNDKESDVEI
# Sequence (Q9Y618 395-489 partner limits assumed): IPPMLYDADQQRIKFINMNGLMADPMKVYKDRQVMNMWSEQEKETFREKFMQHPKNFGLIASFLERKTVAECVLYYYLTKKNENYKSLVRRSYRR
# test method notes: In vitro HDAC enzyme inhibition assay, HDAC3
# Type: biochemical
# test settings: ratio of IC50 for HDAC3 relative to that of HDAC6
observable: HDAC3/HDAC6 in vitro selectivity
Quick one: just the number, no unit, thanks!

Record excerpt, results attached:
| smiles representation | test value |
| --- | --- |
| O=C(NO)c1ccc(Cn2cnc3cc(Cl)ccc32)cc1 | 3046 |
| O=C(NO)c1ccc(Cn2c(C(F)(F)F)nc3cc(F)ccc32)cc1 | 3126 |
| O=C(NO)c1ccc(Cn2cnc3cc(F)ccc32)cc1 | 9140 |

Q) What is its HDAC3/HDAC6 in vitro selectivity for HDAC3 (Homo sapiens, UniProt O15379)? Entry: O=C(NO)c1ccc(Cn2c(=O)[nH]c3cc(Br)ccc32)cc1
A) 495

Q) What is its HDAC3/HDAC6 in vitro selectivity for HDAC3 (Homo sapiens, UniProt O15379)? Entry: COc1ccc2c(c1)ncn2Cc1ccc(C(=O)NO)cc1
A) 2293

Q) What is its HDAC3/HDAC6 in vitro selectivity for HDAC3 (Homo sapiens, UniProt O15379)? Entry: O=C(NO)c1ccc(Cn2nnc3cc(Br)ccc32)cc1
A) 4479

Q) What is its HDAC3/HDAC6 in vitro selectivity for HDAC3 (Homo sapiens, UniProt O15379)? Entry: O=C(NO)c1ccc(Cn2c(C(F)(F)F)nc3ccccc32)cc1
A) 3791

Q) What is its HDAC3/HDAC6 in vitro selectivity for HDAC3 (Homo sapiens, UniProt O15379)? Entry: O=C(NO)c1ccc(Cn2nnc3ccccc32)cc1
A) 10277

Q) What is its HDAC3/HDAC6 in vitro selectivity for HDAC3 (Homo sapiens, UniProt O15379)? Entry: O=C(NO)c1ccc(Cn2c(C(F)(F)F)nc3cc(Br)ccc32)cc1
A) 2529

Q) What is its HDAC3/HDAC6 in vitro selectivity for HDAC3 (Homo sapiens, UniProt O15379)? Entry: O=C(NO)c1ccc(Cn2c(=O)[nH]c3ccccc32)cc1
A) 14575

Q) What is its HDAC3/HDAC6 in vitro selectivity for HDAC3 (Homo sapiens, UniProt O15379)? Entry: Cc1ccc2c(c1)nc(C(F)(F)F)n2Cc1ccc(C(=O)NO)cc1
A) 3718

Q) What is its HDAC3/HDAC6 in vitro selectivity for HDAC3 (Homo sapiens, UniProt O15379)? Entry: O=C(NO)c1ccc(Cn2cnc3cc(Br)ccc32)cc1
A) 3936

Q) What is its HDAC3/HDAC6 in vitro selectivity for HDAC3 (Homo sapiens, UniProt O15379)? Entry: COc1ccc2c(c1)nc(C(F)(F)F)n2Cc1ccc(C(=O)NO)cc1
A) 2067
